Test system: T-47D breast
Test: NCI-60 one-dose screen, 48 h
Conditions: 10 µM unless noted
Procedure: Growth inhibition of the T-47D human tumor cell line is measured as a screen for anti-cancer activity. Cells are grown in 96 well plates and exposed to the test compound for 48 hours. Compounds are tested at a single concentration, which is 10^-5 M for most compounds. The reported endpoint is percent growth (GI% or GIPRCNT), where numbers from 0 - 100% represent growth inhibition, and numbers from -100% - 0 represent cell death. For example, a value of 40 represents 60% growth inhibition. […]
Compounds without any hit were thinned out: in the full panel of roughly 83,000, 20% have a hit. Active and inactive are the calls of the source. Rule for the calls: active = growth percent below 10; inactive = the rest.
Outcomes: y (active), n (inactive)

Structure smiles string: COc1cc2nc(Cl)nc(Nc3cccc(C(=O)/C=C/c4ccc(Br)cc4)c3)c2cc1OC
Target or test system: T-47D breast
Label value: n

Structure smiles string: CC(=O)OCCCCCCn1c2ccccc2c2c3c(c4c5ccccc5n(C)c4c21)C(=O)N(O)C3=O
Target or test system: T-47D breast
Label value: n

Structure smiles string: C=C1C(=O)O[C@H]2[C@H]1CC/C(COC(=O)NCc1c[nH]c3ccccc13)=C\CC[C@@]1(C)O[C@@H]21
Target or test system: T-47D breast
Label value: n

Structure smiles string: CC1(C)[C@@H](O)CC[C@]2(C)[C@H]3CC[C@@H]4[C@H]5[C@H](C(=O)/C=C/c6ccc(C(F)(F)F)cc6)CC[C@]5(CO)CC[C@@]4(C)[C@]3(C)CC[C@@H]12
Target or test system: T-47D breast
Label value: n

Structure smiles string: COc1ccc(C2(Cl)c3ccccc3N(c3ccccc3)c3ccccc32)cc1
Target or test system: T-47D breast
Label value: y

Structure smiles string: COc1cc2[nH]c(C(=O)c3cc(OC)c(OC)c(OC)c3)c(N)c2cc1C#CCO
Target or test system: T-47D breast
Label value: n

Structure smiles string: O=C1C=Cc2ncccc2C1=O
Target or test system: T-47D breast
Label value: n

Structure smiles string: Cc1cc(N(CCCNc2ccnc3cc(Cl)ccc23)Cc2ccco2)nc(Cl)n1
Target or test system: T-47D breast
Label value: n

Structure smiles string: COc1cccc(-c2nn(-c3ccccc3)cc2-c2ccnc(NCCCNS(=O)(=O)c3cccc(F)c3)c2)c1
Target or test system: T-47D breast
Label value: y

###

System: BT-549 breast
Test: NCI-60 one-dose screen, 48 h
Conditions: 10 µM unless noted
Compounds without any hit were thinned out: in the full panel of roughly 83,000, 20% have a hit. The source made the active and inactive calls. Rule for the calls: active = growth percent below 10; inactive = the rest.
Classes used: active, inactive

Compound: c1ccc(-c2nc(Nc3ccc(-c4nc5ccccc5[nH]4)cc3)nc(N3CCOCC3)n2)cc1
Target or test system: BT-549 breast
Label value: inactive
//
Compound: Cc1cc(N2CCOCC2)nc(N(CCCNc2ccnc3cc(Cl)ccc23)Cc2ccco2)n1
Target or test system: BT-549 breast
Label value: inactive
//
Compound: COc1cc(-c2cc(-c3nc4ccc(F)cc4[nH]3)[nH]n2)cc(OC)c1OC
Target or test system: BT-549 breast
Label value: active
//
Compound: COC(=O)[C@]12CC[C@@H](C)[C@H](C)[C@@H]1C1=CC[C@@H]3[C@@]4(C)C[C@@H](OC(C)=O)[C@H](OC(C)=O)[C@@](C)(COC(C)=O)[C@@H]4[C@H](O)C[C@@]3(C)[C@]1(C)CC2
Target or test system: BT-549 breast
Label value: active
//
Compound: COc1ccc2[nH]c(-c3ccc(Cl)cc3)cc(=O)c2c1
Target or test system: BT-549 breast
Label value: inactive
//
Compound: COC(=O)[C@]12CC[C@@H](C(C)=O)[C@@H]1[C@H]1CC[C@@H]3[C@@]4(C)C/C(=C/c5cccnc5)C(=O)C(C)(C)[C@@H]4CC[C@@]3(C)[C@]1(C)CC2
Target or test system: BT-549 breast
Label value: inactive
//
Compound: COc1cc(/C=C2\C(=O)N(CC(O)COc3cc(O)c4c(=O)cc(-c5ccccc5)oc4c3)c3ccccc32)cc(OC)c1O (configuration not stated)
Target or test system: BT-549 breast
Label value: inactive
//
Compound: Cc1ccc(Cc2cnc(NC(=O)/C=C/c3cccc(C)c3)s2)cc1
Target or test system: BT-549 breast
Label value: active
//
Compound: Cn1cc(-c2nc(-c3c[nH]c4ncccc34)cs2)c2ccccc21
Target or test system: BT-549 breast
Label value: inactive
//
Compound: CCCCC[C@H]1CC=C2C(=O)C=C[C@@H]2CC=CCCCC(=O)O[C@@H](CCCCC)CC=C2C(=O)C=C[C@@H]2CC=CCCCC(=O)O[C@@H](CCCCC)CC=C2C(=O)C=C[C@@H]2CC=CCCCC(=O)O1
Target or test system: BT-549 breast
Label value: active
//
Compound: Cc1cccc(C)c1NC(=O)CSC(=S)N1CCCCC1
Target or test system: BT-549 breast
Label value: inactive
//
Compound: Cn1cc(-c2csc(-c3cn(CCNC(=O)OC(C)(C)C)c4ccccc34)n2)c2cccnc21
Target or test system: BT-549 breast
Label value: inactive

###

Test system: 786-0 renal
Experiment: NCI-60 one-dose screen, 48 h (100 = growth as untreated, 0 = no growth, -100 = all killed)
Conditions: 10 µM unless noted
About 83,000 compounds went through this panel and 20% of them were active in at least one assay; those are over-represented in the sample as a whole.

Compound: CC(=O)O[C@H]1CC[C@@]2(C)C(=CC[C@@H]3[C@@H]2CC[C@]2(C)C(=O)N(O)C(=O)C[C@@H]32)C1
growth, %: 81.1
//
Compound: COc1ccc(NC(=O)c2ccoc2COc2ccccc2)cc1
growth, %: 96.9
//
Compound: COc1ccc2c(c1)C/C(=C\c1cc(-c3ccc4c(c3)OCO4)n[nH]1)C2=O
growth, %: 106
//
Compound: Cc1ccc2c(c1)c(-c1nc(-c3c[nH]c4ncccc34)cs1)cn2C
growth, %: 83
//
Compound: C[N+](C)(CCCCCC[N+](C)(C)C1c2ccccc2-c2ccccc21)C1c2ccccc2-c2ccccc21
growth, %: 112
//
Compound: Cc1csc(-c2ccc3c(c2)COC3(CCCN(C)C)c2ccc(F)cc2)c1 (centres undefined)
growth, %: 61.8
//
Compound: NC(Cc1ccc(O)cc1)C(=O)N/N=C/c1ccccc1O (centres undefined)
growth, %: 104
//
Compound: Cn1cc(-c2csc(-c3cn(CCNC(=O)OC(C)(C)C)c4ccccc34)n2)c2cccnc21
growth, %: 93.6
//
Compound: Cc1ccc(N(CC(=O)Nc2ccc(S(=O)(=O)NC3CCN(C)CC3)cc2)S(=O)(=O)c2ccc(Cl)cc2)cc1
growth, %: 87.4

###

Tested on: K-562 leukemia
Assay: NCI-60 one-dose screen, 48 h (100 = growth as untreated, 0 = no growth, -100 = all killed)
Details: 10 µM unless noted
About 83,000 compounds went through this panel and 20% of them were active in at least one assay; those are over-represented in the sample as a whole.
Decide by growth: equal to or exceeding 20% means True, less means False.

Molecule: Cc1ccc(Cc2cnc(NC(=O)/C=C/c3cccc(C)c3)s2)cc1
Label value: False

Molecule: Nc1nc2c3ccncc3cc(-c3cccc(Cl)c3)c2c2cnccc12
Label value: False

Molecule: Fc1ccc(NCc2nnc(-c3ccc(Cl)cc3)o2)cc1
Label value: True

Molecule: C=C(C)[C@@H]1CC[C@]2(C(=O)N3CCN(C)CC3)CC[C@]3(C)[C@H](CC[C@@H]4[C@@]5(C)C/C(=C/c6ccc(C(F)(F)F)cc6)C(=O)C(C)(C)[C@@H]5CC[C@]43C)[C@@H]12
Label value: True

Molecule: Cc1nnc2nc(N)[nH]n2c1=O
Label value: True

Molecule: COc1cccc(-c2nn(-c3ccccc3)cc2-c2ccnc(NCCCN)c2)c1
Label value: False

Molecule: C=C(C)[C@@H]1CC[C@]2(C(=O)NNC(=O)c3cccnc3)CC[C@]3(C)[C@H](CC[C@@H]4[C@@]5(C)CCCNC(C)(C)[C@@H]5CC[C@]43C)[C@@H]12
Label value: False

Molecule: CC1(C)NC2=C(C(Nc3cccnc3)N1)C(c1ccc([N+](=O)[O-])cc1)C(C(=O)c1ccc(N=[N+]=[N-])cc1)O2 (stereo not drawn)
Label value: True

Molecule: Cn1cc(-c2csc(-c3cn(CCN)c4ccc(F)cc34)n2)c2cccnc21
Label value: False

Molecule: CC(C)=CCC/C(C)=C/CC/C(C)=C/CC/C(C)=C/CSC[C@H](NC(=O)CCCCCN1CCN(C)CC1)C(=O)NC1CCCCC1
Label value: False

Molecule: CCC(c1ccc(OC)cc1)C(CC)c1ccc(O)c(CN2CCCCC2)c1 (stereo not drawn)
Label value: False

Molecule: COc1ccc(/C=C/C(=O)NCCO)cc1
Label value: True

Molecule: CC[C@H](CC[C@@H](C)[C@H]1CC[C@H]2[C@@H]3/C(=C/c4cccnc4)C(=O)C4=CC(=O)CC[C@]4(C)[C@H]3CC[C@]12C)C(C)C
Label value: True

Molecule: COc1cc2c(cc1-c1c(C)noc1C)ncc1nc(C3CCCCC3)n([C@@H](C)COC(F)F)c12
Label value: True

Molecule: Oc1ccccc1/C=N\NC(=S)Nc1ccc(F)cc1
Label value: False

Molecule: O=S(=O)(NCCCNc1cc(-c2cn(-c3ccccc3)nc2-c2cccc(O)c2)ccn1)c1ccc(F)cc1
Label value: False

Molecule: CC(C)(C)n1cc(-c2ccnc(NCCCNS(=O)(=O)c3ccc(Cl)cc3)c2)c(-c2cccc(F)c2)n1
Label value: True

Molecule: COc1cc(NC(C)CN(CC(C)C)C(C)C)c2ncccc2c1 (stereo not drawn)
Label value: True
